- System: galium (catchweed bedstraw, Galium aparine)
- Procedure Text: Test D pre-/postemergence controlled growth environment herbicide test
- Format: in vivo
- Condition Parameters: Postemergence, 31 g ai/ha, scale 0 to 100
compounds and their reported Plant response rating
API doc: respond with a numeric literal and nothing else, no unit.

[[record]]
entry_smiles = "Cc1cc(=O)n(-c2ccc(C(F)(F)F)cc2)nc1Cc1ccnc(C(F)(F)F)c1"
assay_endpoint = "Plant response rating"
measured_result = 40


Reported Plant response rating for `Cc1cc(=O)n(-c2ccc(F)cc2)nc1Oc1ccnc(C(F)(F)F)c1` was 60

Looking up `COc1cc(=O)n(-c2ccc(F)cc2)nc1Cc1ccnc(C(F)(F)F)c1` , I see its Plant response rating listed as 50

// Plant response rating lookup, compound = `Cc1cc(=O)n(-c2ccc(F)cc2)nc1Cc1ccnc(C(F)(F)F)c1` , result: 30

* * *

- Test system: velvetleaf (Abutilon theophrasti)
- Procedure Text: Test A pre-/postemergence greenhouse herbicide test
- Type: in vivo
- Condition Parameters: Abutilon theophrasti, post-emergence, 240 h; Postemergence, 125 g ai/ha; 0 to 100 scale (0 no effect, 100 complete control), approx. 10 d; read-out: Plant response rating, Velvetleaf
Assay Endpoint: pest or weed control at 125 g/ha (%)
Entry rule: numbers only, all in %.

Some solved cases for reference:
[[record]]
compound = "CCOc1cc(=O)n(-c2ccc(F)cc2)nc1C(O)c1ccnc(C(F)(F)F)c1 (stereo not shown)"
assay_endpoint = "pest or weed control at 125 g/ha"
uom = "%"
measured_result = 20

[[record]]
compound = "Cc1cc(=O)n(-c2ccc(C(F)(F)F)cc2)nc1Cc1ccnc(C(F)(F)F)c1"
assay_endpoint = "pest or weed control at 125 g/ha"
uom = "%"
measured_result = 50


Entry `Cc1cc(Oc2ccnc(C(F)(F)F)c2)nn(-c2ccc(C(F)(F)F)cc2)c1=O` , pest or weed control at 125 g/ha reported as 100

Input `Cc1cc(=O)n(-c2ccc(C(F)(F)F)cc2)nc1Oc1ccnc(C(F)(F)F)c1` . Output pest or weed control at 125 g/ha: 70

* * *

Quick list: Plant response rating per entry.
- System: radish, wild (wild radish, Raphanus raphanistrum)
- Procedure Text: Test D pre-/postemergence controlled growth environment herbicide test
- Type: in vivo
- Condition Parameters: Postemergence, 31 g ai/ha, scale 0 to 100
Respond with the number and no other words.

Past entries and their recorded results:
[[record]]
entry_smiles = "Cc1cc(=O)n(-c2ccc(F)cc2)nc1Cc1ccnc(C(F)(F)F)c1"
measured_result = 10

[[record]]
entry_smiles = "Cc1cc(=O)n(-c2ccc(F)cc2)nc1Oc1ccnc(C(F)(F)F)c1"
measured_result = 80

[[record]]
entry_smiles = "COc1cc(=O)n(-c2ccc(F)cc2)nc1Cc1ccnc(C(F)(F)F)c1"
measured_result = 30


Could you now look at the following compound, please?
// sample `Cc1cc(=O)n(-c2ccc(C(F)(F)F)cc2)nc1Cc1ccnc(C(F)(F)F)c1` , its Plant response rating was 20

* * *

- Test system: crabgrass, Large (large crabgrass, Digitaria sanguinalis)
- Procedure Text: Test C pre-/postemergence greenhouse herbicide test
- Format: in vivo
- Condition Parameters: Digitaria sanguinalis, pre-emergence; Crabgrass, Large; Preemergence; 62 g ai/ha; read-out: Plant response rating
- Text: […]
Assay Endpoint: pest or weed control at 62 g/ha (%)
Respond numerically; units are % and should not be typed.

Illustrative cases are given below, each with its answer.
[[record]]
compound = "CCOc1cc(=O)n(-c2ccc(F)cc2)nc1C(O)c1ccnc(C(F)(F)F)c1 (stereo not shown)"
assay_endpoint = "pest or weed control at 62 g/ha"
measured_result = 100

[[record]]
compound = "Cc1cc(=O)n(-c2ccc(F)cc2)nc1Oc1ccnc(C(F)(F)F)c1"
assay_endpoint = "pest or weed control at 62 g/ha"
measured_result = 100

[[record]]
compound = "COc1cc(=O)n(-c2ccc(F)cc2)nc1Cc1ccnc(C(F)(F)F)c1"
assay_endpoint = "pest or weed control at 62 g/ha"
measured_result = 100


Lab note: measured pest or weed control at 62 g/ha of `Cc1cc(=O)n(-c2ccc(C(F)(F)F)cc2)nc1Cc1ccnc(C(F)(F)F)c1` was 80

Just so you know, measured pest or weed control at 62 g/ha for `COc1cc(=O)n(-c2ccc(C(F)(F)F)cc2)nc1Cc1ccnc(C(F)(F)F)c1` came out at 98

// recorded pest or weed control at 62 g/ha for `Cc1cc(=O)n(-c2ccc(F)cc2)nc1Cc1ccnc(C(F)(F)F)c1` : 100

Form: compound = `CCOc1cc(=O)n(-c2ccc(F)cc2)nc1Cc1ccnc(C(F)(F)F)c1` ; pest or weed control at 62 g/ha = 100
